- Assayed System: CUG-BP2 RRM3 F455A (UniProt O95319 416-508, F455A;Y508W)
- Sequence (O95319 416-508 F455A/Y508W): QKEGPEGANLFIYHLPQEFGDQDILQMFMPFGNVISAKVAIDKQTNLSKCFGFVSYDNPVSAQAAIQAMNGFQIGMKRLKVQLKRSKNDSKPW
- Assay Method Text: NMR 15N-HSQC titration; 20 mM K phosphate pH 5.8, 10 mM NaCl, 0.1% beta-mercaptoethanol, 25 C (NMR titrations and ITC); hnRNP A1: 10 mM Na phosphate pH 6.5, 10 mM beta-mercaptoethanol
- Condition Details: protein: recombinant; tags: His-tag (pET28a)
Readout: Kd (µM)
Give just the number in µM; leave the unit off.

GET /values?readout=Kd&item= UUUAA (ssRNA)
41
